Exercise: for every item that follows, state its recorded inhibition at 10 µM.
- Test system: IICR (IP3 induced calcium release) in CHO cells
- protocolDescription: Assay of IICR (IP3 induced calcium release)-inhibiting action
- Format: cell-based, Chinese hamster
- experimentalContext: Cricetulus griseus, CHO, test compound 10 μmol; CHO cells, 10 μM ATP; read-out: IICR level (percentage of inhibition)

> print(dat)
                                     smi                                       tgt            parameter  observed
1          CC(C)(C)N(CCO)CCC(=O)c1ccccn1  IICR (IP3 induced calcium release) in CHO cells  inhibition at 10 µM        0%
2                 CN(CCO)CCC(=O)c1cccn1C  IICR (IP3 induced calcium release) in CHO cells  inhibition at 10 µM        0%
3         Cc1ccc(C(=O)CCN(C)Cc2ccccc2)o1  IICR (IP3 induced calcium release) in CHO cells  inhibition at 10 µM        0%
4  CC(C)(C)N(CCC(=O)c1ccc(I)s1)Cc1ccccc1  IICR (IP3 induced calcium release) in CHO cells  inhibition at 10 µM       78%

Next item in the queue.
Q: Look up and state reported inhibition at 10 µM for Cc1ccc(C(=O)CCN(Cc2ccccc2)C(C)(C)C)cc1
A: 20%
